Protocol Summary: Aqueous stability in the absence of enzyme
Format: physicochemical
Test Context: aqueous solution without enzyme; aqueous, pH 7.4, 37° C.; read-out: t1/2 aq, pH 7.4, 37° C.
Method: Enzymatic Release and Aqueous Stability In vitro enzymatic hydrolysis was carried out with commercial β-N-acetylhexosaminidase from Canavalia ensiformis E.C. 3.2.1.52 (22.8 units·mg^−1 protein, suspension in 2.5 M ammonium sulfate, pH 7.0). Using a VWR® Cooling Thermal Shake Touch and monitoring by analytical LC. Prodrug 1 was incubated with the enzyme according to the table below: […]
Measurement Type: half-life

Data request: Dear colleague, I am looking for the recorded half-life of the following molecule: CC(=O)N[C@H]1[C@H](Oc2ccc(COC(=O)N[C@@H]3[C@H](O)[C@H](O[C@H]4/C=C/C=C/C=C/C=C/C=C/C=C/C=C/[C@H](C)[C@@H](O)[C@@H](C)[C@H](C)OC(=O)C[C@H](O)C[C@H](O)CC[C@@H](O)[C@H](O)C[C@H](O)C[C@]5(O)C[C@H](O)[C@@H](C(=O)O)[C@H](C4)O5)O[C@H](C)[C@H]3O)cc2[N+](=O)[O-])O[C@H](CO)[C@@H](O)[C@@H]1O [Compound 1]
Data returned: > 24 h
